Target: Fibroblast growth factor receptor 3 (Homo sapiens) (UniProt P22607)
Sequence (P22607 23-806 limits assumed): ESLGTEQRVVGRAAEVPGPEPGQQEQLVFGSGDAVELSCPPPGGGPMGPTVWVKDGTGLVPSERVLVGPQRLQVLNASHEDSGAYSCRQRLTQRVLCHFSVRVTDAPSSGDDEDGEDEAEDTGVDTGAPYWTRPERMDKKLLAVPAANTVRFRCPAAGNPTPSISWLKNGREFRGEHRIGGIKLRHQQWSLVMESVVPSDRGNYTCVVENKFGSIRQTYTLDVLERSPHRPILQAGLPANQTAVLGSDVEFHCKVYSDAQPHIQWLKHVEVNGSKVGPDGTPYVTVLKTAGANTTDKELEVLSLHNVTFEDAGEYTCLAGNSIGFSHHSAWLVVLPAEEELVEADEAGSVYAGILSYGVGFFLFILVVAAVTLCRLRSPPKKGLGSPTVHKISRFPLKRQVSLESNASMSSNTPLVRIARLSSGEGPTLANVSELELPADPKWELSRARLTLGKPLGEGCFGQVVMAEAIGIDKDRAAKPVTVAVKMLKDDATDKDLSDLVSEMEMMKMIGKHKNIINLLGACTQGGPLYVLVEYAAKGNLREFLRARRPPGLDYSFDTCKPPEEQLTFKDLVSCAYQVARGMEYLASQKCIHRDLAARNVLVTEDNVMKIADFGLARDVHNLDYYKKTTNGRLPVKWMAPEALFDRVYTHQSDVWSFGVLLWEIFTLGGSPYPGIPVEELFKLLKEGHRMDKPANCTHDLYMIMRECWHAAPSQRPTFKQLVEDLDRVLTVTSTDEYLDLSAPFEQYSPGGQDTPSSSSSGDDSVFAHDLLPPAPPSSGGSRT
Conditions: Compound concentration 20.0 uM, Protein concentration 2.0 uM, Result type QC Liability
Description: Thermal Shift Assay. Domain: start/stop: P449-E759
ASSAY_ENDPOINT: ΔTm (°C)
Please give a number only; it is taken to be in °C.

The following compounds have reported results that may help.
query: Quick check: ΔTm of Cc1cc(Cn2c(N3CC4(CNC4)C3)nc3cc(Cl)cc(N4CCN(C)CC4)c32)cc(C)c1F ?
result: 1.32

query: Quick check: ΔTm of C=C1/C(=C\C=C2/CCC[C@]3(C)[C@@H]([C@H](C)CCCC(C)(C)O)CC[C@@H]23)C[C@@H](O)C[C@@H]1O ?
result: 1.25

query: Quick check: ΔTm of CN1CCCN(C(=O)c2cccc(-c3ccc(/C=C4/C(=O)Nc5ccc(Cl)cc54)o3)c2)CC1 ?
result: 2.18

Please look at the following compound next.
query: Quick check: ΔTm of C[C@@H](COCCC(=O)N1CCN(c2ncc(C(F)(F)F)cn2)CC1)Nc1cn[nH]c(=O)c1C(F)(F)F ?
result: 0.48

###

Below, each of the compounds is paired with its reported ΔTm value.
Target: Fibroblast growth factor receptor 3 (Homo sapiens)
Conditions: Compound concentration 20.0 uM, Protein concentration 2.0 uM, Result type QC Liability

The following compounds have reported results that may help.
query: Can you look up ΔTm on Fibroblast growth factor receptor 3 (Homo sapiens) for CC1(C)CCN(C(=O)C2CN(c3c4c(nc5ccnn35)CCNCC4)C2)C1 ?
result: 0.72 °C

query: Can you look up ΔTm on Fibroblast growth factor receptor 3 (Homo sapiens) for COc1ccc(CSc2nnc(-c3ccc4ncsc4c3)o2)cc1C(F)(F)F ?
result: -7.8 °C

query: Can you look up ΔTm on Fibroblast growth factor receptor 3 (Homo sapiens) for COc1ccc(COc2ccc(Cc3cnc(N)nc3N)cc2OC)cc1 ?
result: 0.48 °C

More entries:
query: Can you look up ΔTm on Fibroblast growth factor receptor 3 (Homo sapiens) for N#Cc1c(SCc2csc(-c3ccc(Cl)cc3)n2)nc(N2CCCC2)c(C#N)c1-c1ccc(OCCO)cc1 ?
result: 1.06 °C

###

Target: Fibroblast growth factor receptor 3 (Homo sapiens)
Conditions: Compound concentration 20.0 uM, Protein concentration 2.0 uM, Result type QC Liability
ASSAY_ENDPOINT: ΔTm (°C)
Please give a number only; it is taken to be in °C.

The following compounds have reported results that may help.
query: Quick check: ΔTm of CC(C)(C)OC(=O)CN1C(=O)c2c(OCC(=O)O)cccc2Oc2ccc(C(F)(F)F)cc21 ?
result: 0.75

query: Quick check: ΔTm of CNS(=O)(=O)c1ccc(N(C)C)c(Nc2ncnc3cc(OC)c(OC)cc23)c1 ?
result: 0.55

query: Quick check: ΔTm of C=CC(=O)Nc1cc(-c2nn(C3CCC(N4CCN(C(C)=O)CC4)CC3)c3ncnc(N)c23)ccc1Oc1ccccc1 (configuration not stated) ?
result: 1.74

More entries:
query: Quick check: ΔTm of COc1cc(-c2cc([C@H](O)C3CC3)n3ncnc(N)c23)ccc1CO ?
result: 1.71

query: Quick check: ΔTm of CCCS(=O)(=O)Nc1ccc(F)c(Nc2ncnc3cnc(-n4cnc(C)c4)nc23)c1F ?
result: 1.06

query: Quick check: ΔTm of COc1cc(C(=O)NC2CCN(C)CC2)ccc1Nc1ncc(C(F)(F)F)c(NCc2ccc(C)cc2N(C)S(C)(=O)=O)n1 ?
result: 2.55

query: Quick check: ΔTm of CCCCC(C)(O)C/C=C/[C@H]1[C@H](O)CC(=O)[C@@H]1CCCCCCC(=O)O (some centres not stated) ?
result: 0.43

query: Quick check: ΔTm of CCCNc1ccc2ncc(-c3ccncc3)n2n1 ?
result: 3.37

query: Quick check: ΔTm of Cc1ncsc1-c1ccc(CNC(=O)[C@@H]2C[C@@H](O)CN2C(=O)[C@@H](NC(=O)CCCCNC(=O)c2ccc(-c3ccc(N4CCN(C)CC4)c(NC(=O)c4c[nH]c(=O)cc4C(F)(F)F)c3)cc2)C(C)(C)C)cc1 ?
result: -2.23

query: Quick check: ΔTm of Cc1nc2ccccc2c(-c2ccc3c4c(ccnc24)CCO3)c1[C@H](OC(C)(C)C)C(=O)O ?
result: 0.36

query: Quick check: ΔTm of O=C(O)CCC/C=C\C[C@@H]1[C@@H](/C=C/[C@@H](O)COc2cccc(C(F)(F)F)c2)[C@H](O)C[C@@H]1O ?
result: 0.51

query: Quick check: ΔTm of NC(=O)C1CCCc2c1[nH]c1ccc(Cl)cc21 (configuration not stated) ?
result: 0.98
